- System: L1210 leukemia ip in BDF1 mice, survival T/C
- testDetails: NCI In Vivo Anticancer Drug Screen. Data for tumor model L1210 Leukemia (intraperitoneal) in B6D2F1 (BDF1) mice
- protocolConditions: endpoint: mean survival time; dose: 100.0 mg/kg/injection; schedule: Q01DX009 (ip); vehicle: Klucel (hydroxypropylcellulose) (HPC); higher = longer survival
Inconclusive results and toxic doses are left out.
testReadout: T/C

molecule: COc1ccc(OC(=O)Nc2cc(C)ccc2C)cc1
testReadout: T/C
reportedResult: 91 % of control
//
molecule: CC(C)c1ccc(C(c2c(O)c3ccccc3oc2=O)c2c(O)c3ccccc3oc2=O)cc1
testReadout: T/C
reportedResult: 90 % of control
//
molecule: NC(=O)C(N)CSCc1ccccc1 (configuration not stated)
testReadout: T/C
reportedResult: 95 % of control

Q) For the molecule shown here, `CN(C)c1ccc(/C=C2/CCCCC2=O)cc1` , give the reported T/C.
A) 98 % of control

Q) Then this molecule: `CCOc1ccc(/C=C/c2ccc(OCC)cc2)cc1`
A) 90 % of control

Q) Same question for `CCCCCCCCCCCCCCCC[N+]1(C)CCOCC1` please.
A) 93 % of control

Q) Follow-up item: O=C(CC(C[N+](=O)[O-])c1ccccc1)c1ccc(Cl)cc1 (configuration not stated)
A) 96 % of control

Q) Try this molecule next: CCC(C)NC(=O)Nc1ccccc1Cl (configuration not stated)
A) 101 % of control

Q) Entry `Cc1ccccc1NC(=O)Oc1ccc2c(C)cc(=O)oc2c1` please
A) 103 % of control

Q) Let us now turn to `Cc1ccc(S(=O)(=O)NCCCCCC(=O)O)cc1`
A) 101 % of control

Q) Follow-up entry: Cc1noc(C)c1CC1(c2ccccc2)CCCCC1=O (configuration not stated)
A) 93 % of control

Q) Quick one: `CCOC(=O)c1ccc(NC(=O)Oc2ccc(C=O)cc2OC)cc1`
A) 93 % of control

Numbers sourced from PubChem BioAssay AID248.
